Biological target: FGFR3 (Homo sapiens (Human))
Sequence (P22607 23-806): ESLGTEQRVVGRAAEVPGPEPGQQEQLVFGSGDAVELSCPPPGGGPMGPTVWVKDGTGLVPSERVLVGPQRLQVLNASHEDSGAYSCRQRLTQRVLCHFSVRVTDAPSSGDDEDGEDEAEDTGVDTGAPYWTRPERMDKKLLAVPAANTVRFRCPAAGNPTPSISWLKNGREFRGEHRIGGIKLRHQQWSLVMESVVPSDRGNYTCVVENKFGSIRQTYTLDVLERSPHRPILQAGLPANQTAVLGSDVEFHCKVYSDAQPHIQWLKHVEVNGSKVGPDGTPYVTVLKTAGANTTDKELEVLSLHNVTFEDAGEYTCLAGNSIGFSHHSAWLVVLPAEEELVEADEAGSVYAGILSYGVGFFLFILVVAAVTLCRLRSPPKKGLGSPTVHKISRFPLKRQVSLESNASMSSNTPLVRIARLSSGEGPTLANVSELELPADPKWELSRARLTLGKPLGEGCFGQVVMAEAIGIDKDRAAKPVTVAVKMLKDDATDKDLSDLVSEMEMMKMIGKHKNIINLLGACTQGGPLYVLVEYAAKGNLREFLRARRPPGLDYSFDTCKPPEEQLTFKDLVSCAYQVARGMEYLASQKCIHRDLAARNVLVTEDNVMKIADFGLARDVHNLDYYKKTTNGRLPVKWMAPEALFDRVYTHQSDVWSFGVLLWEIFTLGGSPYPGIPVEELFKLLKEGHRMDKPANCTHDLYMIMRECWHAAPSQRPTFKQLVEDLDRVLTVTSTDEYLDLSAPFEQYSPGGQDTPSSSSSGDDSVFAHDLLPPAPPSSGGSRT
Experiment: FGFR enzymatic assay (FRET peptide phosphorylation), FGFR3
Assay type: biochemical
Conditions: FGFR3 enzyme (Millipore), ATP 140 μM
Protocol: The inhibitor potency of the exemplified compounds was measured in an enzyme assay that measures peptide phosphorylation using FRET measurements to detect product formation. Inhibitors were serially diluted in DMSO and a volume of 0.5 μL was transferred to the wells of a 384-well plate. […] The plate was allowed to equilibrate for ˜1 hr before scanning the wells on a PheraStar plate reader (BMG Labtech). […]
pIC50: −log10 of the molar value.
Please respond with reported pIC50 for every item in the list.

- SMILES_REPR: "COc1cc(OC)c(F)c(N2Cc3cnc4[nH]nc(C)c4c3N(C3CC3)C2=O)c1F"
  RESULT: "> 7.00"
- SMILES_REPR: "COc1cc(OC)c(F)c(N2Cc3cnc4[nH]ccc4c3C3(CCOCC3)C2=O)c1F"
  RESULT: "> 7.00"
- SMILES_REPR: "COc1cc(OC)c(F)c(N2Cc3cnc4[nH]ccc4c3N(Cc3ccccn3)C2=O)c1F"
  RESULT: "> 7.00"
- SMILES_REPR: "COc1cc(OC)c(F)c(N2Cc3cnc4[nH]ncc4c3N(CCc3ccncc3)C2=O)c1F"
  RESULT: "> 7.00"
- SMILES_REPR: "COc1cc(OC)c(F)c(N2Cc3cnc4[nH]c(CN5CCN(C)CC5)cc4c3N(c3cccc(F)c3F)C2=O)c1F"
  RESULT: "> 7.00"

For each listed entry, give its pIC50.
1. CNC(=O)c1cc2c3c(cnc2[nH]1)CN(c1cc(OC)cc(OC)c1)C(=O)N3C
2. COc1cc(OC)c(F)c(N2Cc3cnc4[nH]c(CCN5CCOCC5)cc4c3N(c3ccccc3F)C2=O)c1F

1: > 7.00; 2: > 7.00

For each listed entry, give its pIC50.
1. COc1cc(OC)c(Cl)c(N2Cc3cnc4[nH]ccc4c3N(c3cnn(C)c3)C2=O)c1F
2. COc1cc(OC)cc(N2Cc3cnc4[nH]ccc4c3N(C)C2=O)c1
3. COc1cc(OC)cc(N2Cc3cnc4[nH]ccc4c3N(CC3CC3)C2=O)c1
4. COc1cc(OC)c(F)c(N2Cc3cnc4[nH]cnc4c3N(C)C2=O)c1F
5. CCN1CCN(Cc2cc3c4c(cnc3[nH]2)CN(c2c(F)c(OC)cc(OC)c2F)C(=O)N4c2cnn(C)c2)CC1

1: > 7.00; 2: > 7.00; 3: > 7.00; 4: > 7.00; 5: > 7.00

For each listed entry, give its pIC50.
1. COc1cc(OC)c(F)c(N2Cc3cnc4[nH]ncc4c3N(C)C2=O)c1F
2. COc1cc(OC)c(F)c(N2Cc3cnc4[nH]ncc4c3N(CCc3ccccn3)C2=O)c1F
3. COc1cc(OC)c(F)c(N2Cc3cnc4[nH]cc(CC#N)c4c3N(C)C2=O)c1F
4. CCCN1C(=O)N(c2c(F)c(OC)cc(OC)c2F)Cc2cnc3[nH]c(CN4CCOCC4)cc3c21

["> 7.00", "> 7.00", "> 7.00", "> 7.00"]
